protocolDetails: total protein half-life in vivo (active degradation + dilution); higher = more stable protein
testSettings: wild type E. coli NCM3722; growth: P-lim chemostat; doubling time 6 h
Field: total protein half-life in vivo. Provide a value for each of the sequences that follow.

Qu. Requested field: total protein half-life in vivo. Item: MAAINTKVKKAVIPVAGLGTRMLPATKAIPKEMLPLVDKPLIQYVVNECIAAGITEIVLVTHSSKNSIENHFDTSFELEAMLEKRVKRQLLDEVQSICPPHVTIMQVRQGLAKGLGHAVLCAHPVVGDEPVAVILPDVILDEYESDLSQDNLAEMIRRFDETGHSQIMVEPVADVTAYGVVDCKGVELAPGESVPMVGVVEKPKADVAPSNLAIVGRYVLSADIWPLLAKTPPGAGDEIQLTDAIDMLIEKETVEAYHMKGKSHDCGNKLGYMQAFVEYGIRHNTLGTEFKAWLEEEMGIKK [P0AEP3]
Ans. 5.72 h

Qu. `MRWLPFIAIFLYVYIEISIFIQVAHVLGVLLTLVLVIFTSVIGMSLVRNQGFKNFVLMQQKMAAGENPAAEMIKSVSLIIAGLLLLLPGFFTDFLGLLLLLPPVQKHLTVKLMPHLRFSRMPGGGFSAGTGGGNTFDGEYQRKDDERDRLDHKDDRQD` ?
Ans. 5.89 h

---

protocolDetails: total protein half-life in vivo (active degradation + dilution); higher = more stable protein
testSettings: wild type E. coli NCM3722; growth: N-lim chemostat; doubling time 12 h
measurementLabel: total protein half-life in vivo (h)
Field: numeric (h). Do not append units.

Qu. Requested field: total protein half-life in vivo. Item: `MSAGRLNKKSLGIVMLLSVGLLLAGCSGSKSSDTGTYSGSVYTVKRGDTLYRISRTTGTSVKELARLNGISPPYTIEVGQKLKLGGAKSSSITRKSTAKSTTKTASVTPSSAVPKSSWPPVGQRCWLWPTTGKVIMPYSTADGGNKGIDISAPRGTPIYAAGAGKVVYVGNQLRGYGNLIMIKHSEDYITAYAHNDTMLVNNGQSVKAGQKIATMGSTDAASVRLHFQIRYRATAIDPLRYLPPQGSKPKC`
Ans. 10.8

Qu. `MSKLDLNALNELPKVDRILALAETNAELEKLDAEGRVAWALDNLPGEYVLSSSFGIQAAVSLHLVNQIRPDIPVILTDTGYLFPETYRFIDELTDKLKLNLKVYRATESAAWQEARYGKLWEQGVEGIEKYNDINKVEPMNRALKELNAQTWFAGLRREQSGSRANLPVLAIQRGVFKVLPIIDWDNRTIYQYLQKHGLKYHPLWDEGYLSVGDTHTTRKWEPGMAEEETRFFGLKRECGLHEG` ?
Ans. 1.72

Qu. `MRVLLAPMEGVLDSLVRELLTEVNDYDLCITEFVRVVDQLLPVKVFHRICPELQNASRTPSGTLVRVQLLGQFPQWLAENAARAVELGSWGVDLNCGCPSKTVNGSGGGATLLKDPELIYQGAKAMREAVPAHLPVSVKVRLGWDSGEKKFEIADAVQQAGATELVVHGRTKEQGYRAEHIDWQAIGDIRQRLNIPVIANGEIWDWQSAQQCMAISGCDAVMIGRGALNIPNLSRVVKYNEPRMPWPEVVALLQKYTRLEKQGDTGLYHVARIKQWLSYLRKEYDEATELFQHVRVLNNSPDIARAIQAIDIEKL` ?
Ans. 8.91

Qu. MAIILGIDPGSRVTGYGVIRQVGRQLSYLGSGCIRTKVDDLPSRLKLIYAGVTEIITQFQPDYFAIEQVFMAKNADSALKLGQARGVAIVAAVNQELPVFEYAARQVKQTVVGIGSAEKSQVQHMVRTLLKLPANPQADAADALAIAITHCHVSQNAMQMSESRLNLARGRLR [P0A814] ?
Ans. 5.21

Qu. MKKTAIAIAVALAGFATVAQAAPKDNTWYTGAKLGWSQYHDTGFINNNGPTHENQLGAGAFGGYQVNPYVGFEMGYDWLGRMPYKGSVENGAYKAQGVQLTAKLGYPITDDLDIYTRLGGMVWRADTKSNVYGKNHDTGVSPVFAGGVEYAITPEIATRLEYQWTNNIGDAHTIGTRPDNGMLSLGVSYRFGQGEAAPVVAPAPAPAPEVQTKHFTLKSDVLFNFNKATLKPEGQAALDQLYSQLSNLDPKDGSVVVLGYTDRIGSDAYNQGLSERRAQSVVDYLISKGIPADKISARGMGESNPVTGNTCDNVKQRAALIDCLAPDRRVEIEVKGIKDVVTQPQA [P0A910] ?
Ans. 13.6

Qu. `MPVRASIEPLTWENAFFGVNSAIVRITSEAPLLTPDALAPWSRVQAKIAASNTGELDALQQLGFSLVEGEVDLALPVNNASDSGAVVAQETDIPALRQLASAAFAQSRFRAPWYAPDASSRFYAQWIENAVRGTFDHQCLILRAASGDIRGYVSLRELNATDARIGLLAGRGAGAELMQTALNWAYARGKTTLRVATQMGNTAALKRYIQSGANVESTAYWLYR` ?
Ans. 9.31

---

protocolDetails: total protein half-life in vivo (active degradation + dilution); higher = more stable protein
testSettings: wild type E. coli NCM3722; growth: N-lim chemostat; doubling time 6 h
measurementLabel: total protein half-life in vivo (h)
Field: numeric (h). Do not append units.

Qu. Requested field: total protein half-life in vivo. Item: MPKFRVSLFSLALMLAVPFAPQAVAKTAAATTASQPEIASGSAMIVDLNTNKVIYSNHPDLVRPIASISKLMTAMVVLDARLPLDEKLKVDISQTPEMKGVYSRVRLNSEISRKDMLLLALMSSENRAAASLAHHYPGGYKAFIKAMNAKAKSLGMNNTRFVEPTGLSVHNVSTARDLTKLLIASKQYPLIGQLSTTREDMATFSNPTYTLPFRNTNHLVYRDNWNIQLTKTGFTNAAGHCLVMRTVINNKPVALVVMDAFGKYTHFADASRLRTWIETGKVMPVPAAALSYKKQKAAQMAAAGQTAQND [P0AFI5]
Ans. 2.93

Qu. `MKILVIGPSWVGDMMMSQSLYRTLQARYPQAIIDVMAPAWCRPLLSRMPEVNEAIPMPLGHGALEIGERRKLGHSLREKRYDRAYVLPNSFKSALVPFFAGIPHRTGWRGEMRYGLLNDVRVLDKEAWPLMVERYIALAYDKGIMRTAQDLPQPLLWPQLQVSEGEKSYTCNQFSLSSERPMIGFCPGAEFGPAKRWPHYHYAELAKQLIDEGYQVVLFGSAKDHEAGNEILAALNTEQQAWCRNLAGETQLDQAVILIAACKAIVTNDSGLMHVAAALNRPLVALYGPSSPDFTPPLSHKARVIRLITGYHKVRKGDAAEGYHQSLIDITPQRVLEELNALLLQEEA` ?
Ans. 6.4

---

protocolDetails: total protein half-life in vivo (active degradation + dilution); higher = more stable protein
testSettings: E. coli NCM3722 delta-hslV; growth: N-lim chemostat; doubling time 6 h
measurementLabel: total protein half-life in vivo (h)
Field: numeric (h). Do not append units.

Qu. Requested field: total protein half-life in vivo. Item: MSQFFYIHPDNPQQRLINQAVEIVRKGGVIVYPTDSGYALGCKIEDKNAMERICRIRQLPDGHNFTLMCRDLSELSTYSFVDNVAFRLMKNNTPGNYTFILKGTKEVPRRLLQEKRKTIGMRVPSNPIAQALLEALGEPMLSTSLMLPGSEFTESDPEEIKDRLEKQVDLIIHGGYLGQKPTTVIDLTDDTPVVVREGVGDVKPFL [P0AFR4]
Ans. 6.2

Qu. `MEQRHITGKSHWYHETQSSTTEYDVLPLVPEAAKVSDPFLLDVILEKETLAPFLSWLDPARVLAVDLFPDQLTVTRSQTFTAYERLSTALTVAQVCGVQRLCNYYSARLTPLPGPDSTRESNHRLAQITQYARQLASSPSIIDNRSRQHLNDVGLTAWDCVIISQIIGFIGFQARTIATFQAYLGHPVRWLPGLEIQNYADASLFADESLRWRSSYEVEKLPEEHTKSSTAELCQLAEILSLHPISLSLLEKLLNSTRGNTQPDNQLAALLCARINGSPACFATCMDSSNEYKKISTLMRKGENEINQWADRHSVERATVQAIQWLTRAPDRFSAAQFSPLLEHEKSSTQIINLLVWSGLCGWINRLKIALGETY` ?
Ans. 1.97

Qu. `MEPLREIRNRLLNGWQLSKMHTFEVAARHQSFALAAEELSLSPSAVSHRINQLEEELGIQLFVRSHRKVELTHEGKRVYWALKSSLDTLNQEILDIKNQELSGTLTLYSRPSIAQCWLVPALGDFTRRYPSISLTVLTGNDNVNLQRAGIDLAIYFDDAPSAQLTHHFLMDEEILPVCSPEYAQRHALTNTVINLCHCTLLHDRQAWSNDSGTDEWHSWAQHYAVNLPTSSGIGFDRSDLAVIAAMNHIGVAMGRKRLVQKRLASGELVAPFGDMTVKCHQHYYITTLPGRQWPKIEAFIIWLREQVKTTS` ?
Ans. 6.65
